tgt: 15N-labelled NDM-1 (Klebsiella pneumoniae, UniProt C7C422)
Construct: made in house
Sequence (C7C422 29-270 limits assumed): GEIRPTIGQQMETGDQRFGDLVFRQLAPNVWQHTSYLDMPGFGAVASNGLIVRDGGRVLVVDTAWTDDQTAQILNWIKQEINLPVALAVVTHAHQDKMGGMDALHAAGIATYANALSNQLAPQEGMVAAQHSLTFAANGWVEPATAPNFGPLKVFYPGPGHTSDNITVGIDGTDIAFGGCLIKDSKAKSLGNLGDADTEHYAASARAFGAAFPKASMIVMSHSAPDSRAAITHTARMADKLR
assay: 1H,15N HSQC NMR chemical shift perturbation titration, NDM-1
Assay type: binding
condition.description: Estimated binding constant (Kd), residue 230A, Table S5; per-residue fit, NDM-1 230A
pKd: −log10 of the molar value.
Outcome: rule met for pKd of at least 2; rule not met for anything lower.

Reference set, count: 4
Prompt line: Exam item: decide whether the reported pKd for O=C(NC(C1CCCCN1)P(=O)(O)O)c1cccs1 (centres unmarked) is at least 2.
Response line: rule met

Prompt line: I'd appreciate it if you could say whether O=C(Cc1ccsc1)NC(C1CCCCN1)P(=O)(O)O (centres unmarked) has pKd at least equal to 2.
Response line: rule met

Prompt line: In plain terms: is recorded pKd at least 2 for O=C(Cc1cccs1)NC(C1CCCCN1)P(=O)(O)O (centres unmarked) [Compound 5i-2] ?
Response line: rule met

Prompt line: Does the compound O=C(Cc1cccs1)NC(C1CCCCN1)P(=O)(O)O (centres unmarked) [Compound 5i-1] have recorded pKd that is 2 or more?
Response line: rule met

Others:
Prompt line: Please check the record O=C(NC(C1CCCCN1)P(=O)(O)O)c1ccsc1 (centres unmarked) and state if its pKd is at or above 2.
Response line: rule not met

* * *

tgt: 15N-labelled NDM-1 (Klebsiella pneumoniae)
Construct: made in house
assay: 1H,15N HSQC NMR chemical shift perturbation titration, NDM-1
Assay type: binding
condition.description: Estimated binding constant (Kd), residue 119T, Table S5; per-residue fit, NDM-1 119T
assay.readout: pKd
# reply with the number alone; pKd is -log10 of concentration in mol/L

Example results:
Prompt line: What value of measured pKd is listed for O=C(NC(C1CCCCN1)P(=O)(O)O)c1cccs1 (centres unmarked) ?
Response line: 1.74

Prompt line: pKd lookup needed for O=C(Cc1ccsc1)NC(C1CCCCN1)P(=O)(O)O (centres unmarked) , thanks.
Response line: 2.10

Prompt line: Given the entry O=C(Cc1cccs1)NC(C1CCCCN1)P(=O)(O)O (centres unmarked) [Compound 5i-1] , report its measured pKd.
Response line: 3.03

Prompt line: Please report the recorded pKd for O=C(Cc1cccs1)NC(C1CCCCN1)P(=O)(O)O (centres unmarked) [Compound 5i-2] .
Response line: 1.58

Would you kindly look at the next entry?
Prompt line: What measured pKd goes with O=C(NC(C1CCCCN1)P(=O)(O)O)c1ccsc1 (centres unmarked) ?
Response line: 1.97

* * *

tgt: 15N-labelled VIM-2 (Escherichia coli, UniProt Q5U7L7)
Mark t for Kd under 900 µM, f if at or over.

Worked examples follow.
Prompt line: Please indicate whether the reported Kd of O=C(Cc1cccs1)NC(C1CCCCN1)P(=O)(O)O (stereo not shown) [Compound 5i-2] is strictly below 900 µM.
Response line: f

Prompt line: Determine whether this compound shows Kd lower than 900 µM (ties excluded): O=C(NC(C1CCCCN1)P(=O)(O)O)c1ccsc1 (stereo not shown)
Response line: t

Prompt line: Determine whether this compound shows Kd lower than 900 µM (ties excluded): O=C(NC(C1CCCCN1)P(=O)(O)O)c1cccs1 (stereo not shown) [Compound 5b-2]
Response line: f

Prompt line: Consider O=C(NC(C1CCCCN1)P(=O)(O)O)c1cccs1 (stereo not shown) [Compound 5b-1] . Does its Kd lie strictly below 900 µM?
Response line: t

Attention now shifts to the item below.
Prompt line: Lab note: confirm whether the reported Kd for this compound is below 900 µM, equality not counting. compound: O=C(Cc1cccs1)NC(C1CCCCN1)P(=O)(O)O (stereo not shown) [Compound 5i-1]
Response line: f

* * *

The entries below come with measured log10 of Kd values attached.
tgt: 15N-labelled NDM-1 (Klebsiella pneumoniae)
Construct: made in house
assay: 1H,15N HSQC NMR chemical shift perturbation titration, NDM-1
Format: binding
condition.description: Estimated binding constant (Kd), residue 248M, Table S5; per-residue fit, NDM-1 248M
Values reflect log10 of reported Kd (mM).

Prompt line: Return reported log10 of Kd; argument: O=C(Cc1ccsc1)NC(C1CCCCN1)P(=O)(O)O (centres unmarked) [Compound 5j-1]
Response line: 0.94

Prompt line: I am curious: what log10 of Kd value has been reported for O=C(Cc1cccs1)NC(C1CCCCN1)P(=O)(O)O (centres unmarked) [Compound 5i-1] ?
Response line: -0.11

Prompt line: Bench note: what log10 of Kd did O=C(NC(C1CCCCN1)P(=O)(O)O)c1ccsc1 (centres unmarked) [Compound 5c-1] show?
Response line: 1.56

Prompt line: If you can, please state the reported log10 of Kd value of O=C(NC(C1CCCCN1)P(=O)(O)O)c1cccs1 (centres unmarked) [Compound 5b-1] .
Response line: 1.11

Prompt line: Given the entry O=C(Cc1cccs1)NC(C1CCCCN1)P(=O)(O)O (centres unmarked) [Compound 5i-2] , report its measured log10 of Kd.
Response line: 0.41

* * *

Recorded pKd for the following molecules
tgt: 15N-labelled NDM-1 (Klebsiella pneumoniae, UniProt C7C422)
Construct: made in house
assay: 1H,15N HSQC NMR chemical shift perturbation titration, NDM-1
Type: binding
condition.description: Estimated binding constant (Kd), residue 214K, Table S5; per-residue fit, NDM-1 214K
Scale: pKd equals -log10([C]), with [C] in mol/L.

Please review the following examples before continuing.
Prompt line: Entry O=C(Cc1ccsc1)NC(C1CCCCN1)P(=O)(O)O (centres unmarked) : reported pKd = ?
Response line: 2.71

Prompt line: Looking for the measured pKd of O=C(NC(C1CCCCN1)P(=O)(O)O)c1cccs1 (centres unmarked) , can you help?
Response line: 2.87

Prompt line: Fill in the blank: the reported pKd of O=C(Cc1cccs1)NC(C1CCCCN1)P(=O)(O)O (centres unmarked) [Compound 5i-1] is ____.
Response line: 3.24

Continuing:
Prompt line: For the molecule O=C(Cc1cccs1)NC(C1CCCCN1)P(=O)(O)O (centres unmarked) [Compound 5i-2] , what pKd is on record?
Response line: 3.11

Prompt line: // returns reported pKd for input O=C(NC(C1CCCCN1)P(=O)(O)O)c1ccsc1 (centres unmarked)
Response line: 2.19

* * *

tgt: 15N-labelled NDM-1 (Klebsiella pneumoniae, UniProt C7C422)
Construct: made in house
assay: 1H,15N HSQC NMR chemical shift perturbation titration, NDM-1
Format: binding
condition.description: Estimated binding constant (Kd), residue 251S, Table S5; per-residue fit, NDM-1 251S
Method: Solution NMR spectroscopy is a powerful tool to assess protein–ligand interactions under close to physiological conditions.[47] […] Chemical shift perturbation was calculated according equation (1) 2 […] Further on, Kd was calculated according: 3 […]
Some compounds, each annotated with its measured Kd.
Quick reminder: number only, in mM, skip the unit.

Please review the following examples before continuing.
Prompt line: Which Kd value belongs to O=C(Cc1cccs1)NC(C1CCCCN1)P(=O)(O)O (centres unmarked) [Compound 5i-2] ?
Response line: 3.38

Prompt line: May I ask what Kd has been recorded for O=C(Cc1ccsc1)NC(C1CCCCN1)P(=O)(O)O (centres unmarked) [Compound 5j-1] ?
Response line: 12.3

Prompt line: Which measured Kd value corresponds to O=C(NC(C1CCCCN1)P(=O)(O)O)c1ccsc1 (centres unmarked) [Compound 5c-1] ?
Response line: 15.4

Prompt line: Look at this compound and give its reported Kd. O=C(Cc1cccs1)NC(C1CCCCN1)P(=O)(O)O (centres unmarked) [Compound 5i-1]
Response line: 1.82

Okay, next one:
Prompt line: Recorded Kd of O=C(NC(C1CCCCN1)P(=O)(O)O)c1cccs1 (centres unmarked) [Compound 5b-1] , please.
Response line: 6.07

* * *

tgt: 15N-labelled NDM-1 (Klebsiella pneumoniae)
Construct: made in house
assay: 1H,15N HSQC NMR chemical shift perturbation titration, NDM-1
Format: binding
condition.description: Estimated binding constant (Kd), residue 188G, Table S5; per-residue fit, NDM-1 188G
Protocol: Solution NMR spectroscopy is a powerful tool to assess protein–ligand interactions under close to physiological conditions.[47] […] Chemical shift perturbation was calculated according equation (1) 2 […] Further on, Kd was calculated according: 3 […]
assay.readout: Kd (mM)
The figure you give is taken to be in mM; do not add the unit.

Recorded Kd, per entry:
Prompt line: Please report the recorded Kd for O=C(Cc1ccsc1)NC(C1CCCCN1)P(=O)(O)O (stereo not shown) .
Response line: 6.63

Prompt line: For the compound O=C(Cc1cccs1)NC(C1CCCCN1)P(=O)(O)O (stereo not shown) , what Kd is on record?
Response line: 0.49

Others:
Prompt line: // Kd lookup, key: O=C(NC(C1CCCCN1)P(=O)(O)O)c1ccsc1 (stereo not shown)
Response line: 15.8

Prompt line: Look up Kd for this compound: O=C(NC(C1CCCCN1)P(=O)(O)O)c1cccs1 (stereo not shown)
Response line: 3.4

* * *

tgt: 15N-labelled NDM-1 (Klebsiella pneumoniae, UniProt C7C422)
Construct: made in house
assay: 1H,15N HSQC NMR chemical shift perturbation titration, NDM-1
Assay type: binding
condition.description: Estimated binding constant (Kd), residue 254D, Table S5; per-residue fit, NDM-1 254D
Measured pKd by item
Friendly reminder that pKd comes from taking -log10 of the concentration in mol/L.

Sample records with pKd:
Prompt line: Could you tell me which pKd is on file for O=C(NC(C1CCCCN1)P(=O)(O)O)c1ccsc1 (centres unmarked) ?
Response line: 2.25

Prompt line: I'd like to know its pKd. The molecule in question is O=C(Cc1cccs1)NC(C1CCCCN1)P(=O)(O)O (centres unmarked) [Compound 5i-2]
Response line: 2.30

Prompt line: Could you share which pKd value was measured for O=C(Cc1cccs1)NC(C1CCCCN1)P(=O)(O)O (centres unmarked) [Compound 5i-1] ?
Response line: 2.12

Prompt line: Please give the measured pKd for this molecule: O=C(Cc1ccsc1)NC(C1CCCCN1)P(=O)(O)O (centres unmarked)
Response line: 2.03

Please turn your attention to the following entry.
Prompt line: I am curious: what pKd value has been reported for O=C(NC(C1CCCCN1)P(=O)(O)O)c1cccs1 (centres unmarked) ?
Response line: 2.01
